Field: IC50. System: Non-receptor tyrosine-protein kinase TYK2 (Homo sapiens). Provenance: assorted publications.

Non-receptor tyrosine-protein kinase TYK2 (Homo sapiens) / IC50 / Nc1cc2ccc1-c1ccnc(n1)Nc1ccc(OCC3CCCCC3)c(c1)COCCCCNC2=O : value? 1000 to 10000 nM

Try CN(C)S(=O)(=O)Nc1ccnc(-c2cnc3[nH]ccc3c2N[C@@H]2CCCN(C(=O)CC#N)C2)c1 next. 100 to 1000 nM

Try CO[C@@H]1CNc2cc(Nc3ncc(C(N)=O)c(NC4CC4)n3)ccc2OC1 next. < 10 nM

Try N#CCC(=O)N1CCC[C@@H](Nc2c(-c3ccn(CCO)n3)cnc3[nH]ccc23)C1 next. 10 to 100 nM

Try CC(CO)c1ccc(Nc2nccc(-c3ccc(NC(=O)[C@@H]4CC4(F)F)cc3)n2)cn1 (some centres unmarked) next. 14 nM

====

Field: IC50. System: Non-receptor tyrosine-protein kinase TYK2 (Homo sapiens). Provenance: assorted publications.

O=C1NCCCCOCc2cc(cc(N3CCOCC3)c2)Nc2ncc(Cl)c(n2)-c2ccc1cc2 : 1000 to 10000 nM

Item under review: CCOC(=O)Cn1cc(Nc2ncc3ccn(C[C@@H]4C[C@@H]5C[C@@H]5C4)c3n2)cn1 . Reported IC50? < 100 nM

Try Nc1cc2ccc1-c1ccnc(n1)Nc1ccc(N3CCOCC3)c(c1)COCCCCNC2=O next. 101 to 1000 nM

Try Cc1cnc(Nc2cnn(C)c2)nc1N1CC(CC#N)(NCc2cccc(Cl)c2)C1 next. < 50 nM

====

Field: IC50. System: Non-receptor tyrosine-protein kinase TYK2 (Homo sapiens). Provenance: assorted publications.

As a guide, the following entries are already answered.
CN(c1ncnc2[nH]ccc12)[C@H]1CN(C(=O)CC#N)CC12CC2 : 252 nM
CC[C@H](Cn1ccc2cnc(Nc3cnn(C(CC(C)(C)O)C(=O)O)c3)nc21)C(C)C (stereo partly shown) : < 100 nM
CCC(CC)n1cc(-c2nc(-c3cnn([C@@H](C)CO)c3)cn3nccc23)cn1 : 10 to 100 nM
CCOC(=O)C(C)n1cc(Nc2ncc3ccn(CC(CC)CC)c3n2)cn1 (stereo not shown) : < 100 nM

Item under review: Cc1cc(Nc2nc(N[C@@H]3C[C@H]4CC[C@@H](C3)N4CCC#N)nc3cc(-c4ccncc4)ccc23)n[nH]1 . Reported IC50? 0.56 nM

Try O=C1NCc2nc(-c3c(F)cccc3F)cc(Nc3ccc(C(=O)N4CCC4)cc3)c21 next. 74.1 nM

Try O=C1NCc2nc(-c3c(F)cccc3F)cc(Nc3ccc(N4CCCC4)cn3)c21 next. 390 nM

Try Cc1cnc2nc1Nc1cccc(c1)CCNC(=O)c1ccc(cc1S(C)(=O)=O)-c1cnc(F)c(c1)N2 next. 101 to 1000 nM

====

Field: IC50. System: Non-receptor tyrosine-protein kinase TYK2 (Homo sapiens). Provenance: assorted publications.

CCC(CC)n1cc(-c2nc(-c3cnn([C@H]4CC[C@@H](O)CC4)c3)cn3nccc23)cn1 : 10 to 100 nM

Non-receptor tyrosine-protein kinase TYK2 (Homo sapiens) / IC50 / O=C1NCCCCOCc2cc(ccc2OC2CCCOC2)Nc2nccc(n2)-c2ccc1cc2[N+](=O)[O-] (centres unmarked) : value? > 10000 nM

Try CSC(CNC(=O)c1noc2c1CN(c1ncnc3[nH]ccc13)CC2)C(F)(F)F (centres unmarked) next. > 2000 nM

Try Cc1cccc(-c2cnc3[nH]ccc3c2N[C@@H]2CCCN(C(=O)CC#N)C2)n1 next. 100 to 1000 nM

Try Cc1cc(Nc2ncc(C)c(N3CC(=CC#N)C3)n2)sn1 next. < 75 nM

====

Field: IC50. System: Non-receptor tyrosine-protein kinase TYK2 (Homo sapiens, UniProt P29597). Provenance: assorted publications.

As a guide, the following entries are already answered.
CC(C)C[C@H](C)n1cc(-c2nc(-c3cnn(C[C@@H](O)CO)c3)cn3nccc23)cn1 : 100 to 1000 nM
CNC(=O)c1n[nH]c2cc(-c3cc(F)c(O)cc3CC(F)(F)F)nc(NCc3ccccc3N(C)S(=O)(=O)c3cccc(O)c3)c12 : 373 nM
CC(C)OC(=O)Cn1cc(Nc2ncc3ccn(CC(C(C)C)C(C)C)c3n2)cn1 : < 100 nM
N#CCCn1cc(-c2nc(-c3ccc(N4CCOCC4)cc3)cc3nccn23)cn1 : < 10 nM
Cn1cc(-c2cc3nccn3c(-c3cnn(C(CC#N)c4cncc(Br)c4)c3)n2)cn1 (stereo not shown) : < 10 nM
CCOC(=O)CCn1cc(Nc2ncc3ccn(CC(CC)C(C)C)c3n2)cn1 (stereo not shown) : < 100 nM
O=C(Nc1nc2cccc(-c3ccc(CN4CCOCC4)cc3)n2n1)C1CC1 : 2100 nM
Cn1ccc2c(Nc3nc(Nc4ccc5c(c4)NCC(O)CO5)ncc3C(N)=O)cccc21 (stereo not shown) : < 10 nM
O=S(=O)(NC12CC(n3cnc4cnc5[nH]ccc5c43)(C1)C2)c1ccc(Cl)cc1 : 413 nM
COCCS(=O)(=O)NC12CC(n3cnc4cnc5[nH]ccc5c43)(C1)C2 : 1050 nM

Item under review: COc1ccc(-c2cc3nccn3c(-c3cnn(C4(CC#N)CN(S(=O)(=O)C(F)(F)F)C4)c3)n2)cc1 . Reported IC50? < 10 nM

Try Cc1cc(Nc2ncc(C)c(N3CC(CC#N)(N4CC(C)CC5(CC5)C4)C3)n2)sn1 (stereo not shown) next. < 10 nM

Try Cc1nnc(-c2cnc3[nH]ccc3c2N[C@H]2C[C@@H](NS(=O)(=O)c3cc(C#N)ccn3)C2)o1 next. > 1000 nM

Try NC(=O)c1cnc(Nc2ccc3c(c2)NC[C@H](O)CO3)nc1NCC1CCCCC1 next. < 10 nM

Try CC(O)Cn1cnc2cc(Nc3ncc(Cl)c(NC4CCN(c5ccc(C#N)cn5)CC4)n3)ccc21 (stereo not shown) next. 0.9 nM

Try N#CCC(C1CC1)n1cc(-c2nc(-c3cnn(CC(F)(F)F)c3)cc3nccn23)cn1 (stereo not shown) next. < 10 nM

====

Field: pIC50. System: Non-receptor tyrosine-protein kinase TYK2 (Homo sapiens, UniProt P29597). Provenance: assorted publications.
pIC50: −log10 of the molar value.

As a guide, the following entries are already answered.
CCC(CC)n1cc(-c2nc(-c3cnn(C[C@H](O)CN(C)C)c3)cn3nccc23)cn1 : 7.00 to 8.00
C#CCN1CC(CC#N)(n2cc(-c3nc(-c4cnn(C)c4)cc4nccn34)cn2)C1 : 7.00 to 8.00
CC[C@@H](n1cc(-c2nc(-c3cnn(C[C@@H](O)CO)c3)cn3nccc23)cn1)C(C)(F)F (single isomer, unassigned) : 6.00 to 7.00
Cn1ccnc1-c1cnc2[nH]ccc2c1N[C@@H]1CCCN(C(=O)CC#N)C1 : < 6.00

Non-receptor tyrosine-protein kinase TYK2 (Homo sapiens, UniProt P29597) / pIC50 / C=CCNc1nc(Nc2ccc3c(c2)NC[C@H](O)CO3)ncc1C(N)=O : value? > 8.00

Try Cn1cc(-c2cc3nccn3c(-c3cnn(C(C)(CC#N)c4ccccc4)c3)n2)cn1 (centres unmarked) next. 6.00 to 7.00

Try COCCC1(n2cc(-c3nc(-c4cnn(C)c4)cc4nccn34)cn2)CCC1 next. 6.00 to 7.00

Try CCCCNc1nc(-c2cc(F)c(O)cc2CC(F)(F)F)nc2[nH]ncc12 next. 5.29

====

Field: pIC50. System: Non-receptor tyrosine-protein kinase TYK2 (Homo sapiens, UniProt P29597). Provenance: assorted publications.
pIC50: −log10 of the molar value.

CC[C@H](n1cc(-c2nc(-c3cnn(C[C@@H](O)CO)c3)cn3nccc23)cn1)C(C)(F)F : 6.00 to 7.00
Cc1cnc(Nc2ccc(C3COC3)cc2)nc1N1CC(CC#N)(N2CCN(C)CC2)C1 : > 7.70
CCC(C(=O)O)n1cc(-c2nc(-c3cnn(C)c3)cn3nccc23)cn1 (centres unmarked) : 7.00 to 8.00
CC(Cl)C(=O)Nc1cccc(-c2cnc3ccccc3n2)c1 (centres unmarked) : < 4.30
CCC(CC)n1cc(-c2nc(-c3cnn(C[C@@H](O)CN4CCCC4)c3)cn3nccc23)cn1 : 6.00 to 7.00
O=C(NCCC(F)(F)F)c1nn(C2CCOCC2)c2c1CN(c1ncnc3[nH]ccc13)CC2 : < 5.70
CCC(Cn1ccc2cnc(Nc3cnn(CCC(=O)O)c3)nc21)C(C)C (centres unmarked) : > 7.00

# next compound below
Non-receptor tyrosine-protein kinase TYK2 (Homo sapiens, UniProt P29597) / pIC50 / Cc1cc(Nc2ncc(C)c(N3CC(CC#N)(N4CCC(C5CC5(F)F)CC4)C3)n2)sn1 (centres unmarked) : value? > 8.00
